target: Sialidase-3 (Homo sapiens, UniProt Q9UQ49); assay: Inhibition of human NEU3 transiently transfected in HEK293 cells by fluorimetric analysis; type: cell-based
Sequence (Q9UQ49 whole entry): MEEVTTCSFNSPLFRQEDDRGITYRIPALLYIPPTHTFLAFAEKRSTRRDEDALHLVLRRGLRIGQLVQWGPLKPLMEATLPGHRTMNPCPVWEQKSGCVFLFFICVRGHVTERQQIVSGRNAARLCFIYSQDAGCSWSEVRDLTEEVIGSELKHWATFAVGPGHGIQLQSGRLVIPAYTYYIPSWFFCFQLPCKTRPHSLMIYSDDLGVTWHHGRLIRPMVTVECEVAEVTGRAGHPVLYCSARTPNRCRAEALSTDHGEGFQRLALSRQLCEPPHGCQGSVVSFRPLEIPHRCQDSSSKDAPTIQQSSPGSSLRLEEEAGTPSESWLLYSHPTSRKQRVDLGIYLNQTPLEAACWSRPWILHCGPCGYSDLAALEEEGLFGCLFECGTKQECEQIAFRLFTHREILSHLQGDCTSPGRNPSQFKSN
pIC50: −log10 of the molar value.
ATTRIBUTE MEASURED: pIC50

STRUCTURE SMILES STRING | TARGET OR SYSTEM | pIC50
CC(=O)Nc1cc(F)c(C(=O)O)cc1NC(=O)c1ccc(-c2ccccc2)cc1 | Sialidase-3 (Homo sapiens, UniProt Q9UQ49) | ≤ 2.30

Turning now to a further record.
Suppose we examine the molecule "CC(=O)Nc1cc(F)c(C(=O)O)cc1NC(C)=O" ; what pIC50 value has been reported? < 2.70

====

target: Sialidase-4 (Homo sapiens) (UniProt Q8WWR8); experiment: Inhibition of human NEU4 transiently transfected in HEK293 cells at 1 mM by fluorimetric analysis; type: cell-based
Sequence (Q8WWR8 whole entry): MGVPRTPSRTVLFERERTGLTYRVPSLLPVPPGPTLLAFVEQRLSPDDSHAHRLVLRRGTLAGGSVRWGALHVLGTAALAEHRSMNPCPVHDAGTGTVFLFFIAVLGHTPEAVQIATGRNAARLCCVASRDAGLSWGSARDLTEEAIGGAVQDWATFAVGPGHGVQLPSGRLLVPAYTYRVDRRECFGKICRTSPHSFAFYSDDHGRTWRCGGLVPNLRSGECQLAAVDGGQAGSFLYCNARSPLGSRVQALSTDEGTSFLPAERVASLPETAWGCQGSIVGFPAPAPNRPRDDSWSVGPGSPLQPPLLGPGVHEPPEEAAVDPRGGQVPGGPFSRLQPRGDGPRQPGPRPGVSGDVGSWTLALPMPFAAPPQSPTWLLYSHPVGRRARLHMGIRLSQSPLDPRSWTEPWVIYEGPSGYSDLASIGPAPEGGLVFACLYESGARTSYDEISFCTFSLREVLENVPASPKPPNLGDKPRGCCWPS
Active and inactive are the calls of the source. No cut-off for these calls is given here.
ATTRIBUTE MEASURED: inhibition

Observe how each entry below is paired with its result.
COMPOUND | TARGET OR SYSTEM | ATTRIBUTE MEASURED | MEASURED
CC(=O)Nc1cc(F)c(C(=O)O)cc1NC(=O)c1ccc2ccccc2c1 | Sialidase-4 (Homo sapiens) (UniProt Q8WWR8) | inhibition | 10%
CCC(C)C(=O)Nc1cc(C(=O)O)c(F)cc1NC(C)=O (configuration not stated) | Sialidase-4 (Homo sapiens) (UniProt Q8WWR8) | inhibition | inactive
CCC(CC)C(=O)Nc1cc(C(=O)O)c(F)cc1NC(C)=O | Sialidase-4 (Homo sapiens) (UniProt Q8WWR8) | inhibition | < 5%
CC(=O)Nc1cc(F)c(C(=O)O)cc1NC(=O)C1CCCCC1 | Sialidase-4 (Homo sapiens) (UniProt Q8WWR8) | inhibition | 6%
CC(=O)Nc1cc(F)c(C(=O)O)cc1NC(=O)C1CC1 | Sialidase-4 (Homo sapiens) (UniProt Q8WWR8) | inhibition | inactive
CC(=O)Nc1cc(F)c(C(=O)O)cc1NC(=O)C1CCCC1 | Sialidase-4 (Homo sapiens) (UniProt Q8WWR8) | inhibition | inactive
CC(=O)Nc1cc(F)c(C(=O)O)cc1NC(=O)c1ccccc1 | Sialidase-4 (Homo sapiens) (UniProt Q8WWR8) | inhibition | inactive
CC(=O)Nc1cc(F)c(C(=O)O)cc1NC(=O)C(C)(C)C | Sialidase-4 (Homo sapiens) (UniProt Q8WWR8) | inhibition | < 5%

State the recorded inhibition for every item in the following list.
1. CCCCC(=O)Nc1cc(C(=O)O)c(F)cc1NC(C)=O
2. CC(=O)Nc1cc(F)c(C(=O)O)cc1NC(C)=O
3. CC(=O)Nc1cc(F)c(C(=O)O)cc1NC(=O)C(C)C
4. CCCC(=O)Nc1cc(C(=O)O)c(F)cc1NC(C)=O

1: < 5%; 2: 8%; 3: 11%; 4: < 5%

====

biological target: Sialidase-3 (Homo sapiens); test: Inhibition of human NEU3 transiently transfected in HEK293 cells at 1 mM by fluorimetric analysis; assay type: cell-based
Active and inactive are the calls of the source. No cut-off for these calls is given here.
ATTRIBUTE MEASURED: inhibition

COMPOUND | TARGET OR SYSTEM | inhibition
CC(=O)Nc1cc(F)c(C(=O)O)cc1NC(=O)C1CCCC1 | Sialidase-3 (Homo sapiens) | inactive
CC(=O)Nc1cc(F)c(C(=O)O)cc1NC(C)=O | Sialidase-3 (Homo sapiens) | 23%
CC(=O)Nc1cc(F)c(C(=O)O)cc1NC(=O)c1ccccc1 | Sialidase-3 (Homo sapiens) | inactive
CC(=O)Nc1cc(F)c(C(=O)O)cc1NC(=O)C(C)C | Sialidase-3 (Homo sapiens) | inactive
CCCC(=O)Nc1cc(C(=O)O)c(F)cc1NC(C)=O | Sialidase-3 (Homo sapiens) | inactive
CC(=O)Nc1cc(F)c(C(=O)O)cc1NC(=O)C1CC1 | Sialidase-3 (Homo sapiens) | inactive
CCCCC(=O)Nc1cc(C(=O)O)c(F)cc1NC(C)=O | Sialidase-3 (Homo sapiens) | 13%
CC(=O)Nc1cc(F)c(C(=O)O)cc1NC(=O)c1ccc2ccccc2c1 | Sialidase-3 (Homo sapiens) | 8%
CCC(C)C(=O)Nc1cc(C(=O)O)c(F)cc1NC(C)=O (configuration not stated) | Sialidase-3 (Homo sapiens) | inactive
CC(=O)Nc1cc(F)c(C(=O)O)cc1NC(=O)C1CCCCC1 | Sialidase-3 (Homo sapiens) | inactive

State the recorded inhibition for every item in the following list.
1. CCC(CC)C(=O)Nc1cc(C(=O)O)c(F)cc1NC(C)=O
2. CC(=O)Nc1cc(F)c(C(=O)O)cc1NC(=O)C(C)(C)C

["inactive", "inactive"]
